The entries below are paired with their reported inhibition.
target: Glycogen phosphorylase, liver form (Rattus norvegicus); assay: Inhibition of rat liver glycogen […] at 100 uM
Numeric only. Scale: %

Consider the reported inhibition for these compounds:
Item: O=C(/C=C/c1cccc([N+](=O)[O-])c1)C[C@@H]1O[C@H](CO)[C@@H](O)[C@H](O)[C@H]1O | inhibition: 15.6

Record COc1ccc(/C=C/C(=O)C[C@@H]2O[C@H](CO)[C@@H](O)[C@H](O)[C@H]2O)cc1OC , field inhibition: -5.9

# inhibition of O=C(/C=C/c1ccc(O)cc1)C[C@@H]1O[C@H](CO)[C@@H](O)[C@H](O)[C@H]1O = -3.4

New cases:
The recorded inhibition for CCOC(=O)C(C(=O)OCC)C(CC(=O)C[C@@H]1O[C@H](CO)[C@@H](O)[C@H](O)[C@H]1O)c1ccc(OC)c(OC)c1 (mixture of isomers) is 24

Just so you know, measured inhibition for O=C(/C=C/c1ccccc1)C[C@@H]1O[C@H](CO)[C@@H](O)[C@H](O)[C@H]1O came out at 7.3

So for CCOC(=O)C(C(=O)OCC)C(CC(=O)C[C@@H]1O[C@H](CO)[C@@H](O)[C@H](O)[C@H]1O)c1ccc2ccccc2c1 (mixture of isomers) , the logged inhibition turned out to be 14.7

The recorded inhibition for entry CCOC(=O)C(C(=O)OCC)C(CC(=O)C[C@@H]1O[C@H](CO)[C@@H](O)[C@H](O)[C@H]1O)c1ccc(Cl)cc1 (mixture of isomers) equals -5.4

So, O=C(/C=C/c1ccc2ccccc2c1)C[C@@H]1O[C@H](CO)[C@@H](O[C@@H]2O[C@H](CO)[C@@H](O)[C@H](O)[C@H]2O)[C@H](O)[C@H]1O ? Its inhibition was -8.3

###

molecular target: Lysosomal alpha-glucosidase (Rattus norvegicus) (UniProt Q6P7A9); assay: Inhibition of rat intestinal alpha-glucosidase at 100 uM
Sequence (Q6P7A9 whole entry): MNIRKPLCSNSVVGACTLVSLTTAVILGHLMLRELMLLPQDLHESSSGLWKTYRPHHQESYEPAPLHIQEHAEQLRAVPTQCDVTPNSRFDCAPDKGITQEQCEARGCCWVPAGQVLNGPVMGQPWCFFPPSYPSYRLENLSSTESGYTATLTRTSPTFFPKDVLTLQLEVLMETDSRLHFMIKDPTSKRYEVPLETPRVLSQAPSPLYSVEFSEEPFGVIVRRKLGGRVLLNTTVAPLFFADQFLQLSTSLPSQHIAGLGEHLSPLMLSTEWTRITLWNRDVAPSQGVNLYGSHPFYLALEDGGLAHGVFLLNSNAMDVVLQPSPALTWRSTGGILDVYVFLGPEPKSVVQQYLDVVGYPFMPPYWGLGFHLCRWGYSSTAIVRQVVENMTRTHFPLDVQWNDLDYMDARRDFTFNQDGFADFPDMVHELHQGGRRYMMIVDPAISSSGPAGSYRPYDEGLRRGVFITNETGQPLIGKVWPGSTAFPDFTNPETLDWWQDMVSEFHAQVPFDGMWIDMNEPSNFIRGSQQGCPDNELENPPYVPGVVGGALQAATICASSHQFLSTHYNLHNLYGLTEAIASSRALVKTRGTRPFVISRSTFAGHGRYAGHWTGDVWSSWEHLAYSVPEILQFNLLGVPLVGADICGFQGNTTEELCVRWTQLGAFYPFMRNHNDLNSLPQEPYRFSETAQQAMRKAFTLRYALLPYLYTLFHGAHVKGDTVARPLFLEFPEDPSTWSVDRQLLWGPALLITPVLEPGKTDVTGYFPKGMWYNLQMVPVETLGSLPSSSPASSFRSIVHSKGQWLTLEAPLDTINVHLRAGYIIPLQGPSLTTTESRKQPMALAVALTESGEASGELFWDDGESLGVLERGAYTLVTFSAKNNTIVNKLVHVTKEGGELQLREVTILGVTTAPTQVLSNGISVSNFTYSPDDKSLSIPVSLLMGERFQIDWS
property-measured: inhibition (%)
Give the quantity in %, number only.

Some compounds with recorded inhibition:
Measured inhibition, O=C(/C=C/c1ccc(Cl)cc1)C[C@@H]1OC[C@@H](O)[C@H](O)[C@H]1O : -8.3

Documented inhibition of O=C(/C=C/c1cccc([N+](=O)[O-])c1)C[C@@H]1O[C@H](CO)[C@@H](O)[C@H](O)[C@H]1O : -10

So for CCOC(=O)C(C(=O)OCC)C(CC(=O)C[C@@H]1O[C@H](CO)[C@@H](O)[C@H](O)[C@H]1O)c1ccc(OC)c(OC)c1 (mixture of isomers) , the logged inhibition turned out to be -2.3

Further cases:
# inhibition of CCOC(=O)C(C(=O)OCC)C(CC(=O)C[C@@H]1O[C@H](CO)[C@@H](O)[C@H](O)[C@H]1O)c1ccc(Cl)cc1 (mixture of isomers) = -10

According to the records, this compound O=C(/C=C/c1ccc(Cl)cc1)C[C@@H]1O[C@H](CO)[C@@H](O)[C@H](O)[C@H]1O displays inhibition of -5.97

###

target: Glucose-6-phosphatase catalytic subunit 1 (Rattus norvegicus) (UniProt P43428); assay: Inhibition of rat liver glucose-6-phosphatase at 100 uM
Sequence (P43428 whole entry): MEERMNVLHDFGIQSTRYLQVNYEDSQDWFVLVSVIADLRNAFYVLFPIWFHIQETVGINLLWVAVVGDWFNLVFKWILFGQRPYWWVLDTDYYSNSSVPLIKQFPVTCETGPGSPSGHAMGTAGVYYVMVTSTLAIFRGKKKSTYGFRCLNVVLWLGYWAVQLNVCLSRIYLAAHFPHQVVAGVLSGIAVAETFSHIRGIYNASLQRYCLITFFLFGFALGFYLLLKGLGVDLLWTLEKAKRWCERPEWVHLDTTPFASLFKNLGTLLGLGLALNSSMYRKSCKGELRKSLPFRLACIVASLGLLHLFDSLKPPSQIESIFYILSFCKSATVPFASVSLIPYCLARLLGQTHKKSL
property-measured: inhibition (%)
Kindly provide the numeric value in % only, without the unit symbol.

Worked examples, 3 compounds total:
Sample COc1ccc(/C=C/C(=O)C[C@@H]2O[C@H](CO)[C@@H](O)[C@H](O)[C@H]2O)cc1OC ; inhibition observed: 15

Looking up O=C(/C=C/c1ccc2ccccc2c1)C[C@@H]1O[C@H](CO)[C@@H](O)[C@H](O)[C@H]1O , I found its inhibition recorded as -7.7

Form field inhibition, entry CCOC(=O)C(C(=O)OCC)C(CC(=O)C[C@@H]1O[C@H](CO)[C@@H](O)[C@H](O)[C@H]1O)c1ccc2ccccc2c1 (mixture of isomers) : 4.6

New cases:
compound O=C(/C=C/c1cccnc1)C[C@@H]1O[C@H](CO)[C@@H](O)[C@H](O)[C@H]1O , inhibition observed: -8.1
